measured.target: Histamine H2 receptor (Homo sapiens) (UniProt P25021)
Sequence (P25021 whole entry, looked up): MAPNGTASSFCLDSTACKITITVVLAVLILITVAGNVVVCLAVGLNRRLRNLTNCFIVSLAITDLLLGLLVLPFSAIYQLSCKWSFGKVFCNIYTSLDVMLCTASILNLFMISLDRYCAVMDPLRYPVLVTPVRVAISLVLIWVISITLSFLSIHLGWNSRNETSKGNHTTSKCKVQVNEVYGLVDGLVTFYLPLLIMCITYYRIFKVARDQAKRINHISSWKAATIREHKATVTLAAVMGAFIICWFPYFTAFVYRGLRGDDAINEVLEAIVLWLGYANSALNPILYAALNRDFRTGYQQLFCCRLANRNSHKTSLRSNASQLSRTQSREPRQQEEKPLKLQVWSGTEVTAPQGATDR
pIC50: −log10 of the molar value.
quantity.kind: pIC50

The compound CN(C)CC(c1ccc(O)cc1)C1(O)CCCCC1 (stereo unspecified) showed pIC50 equal to < 5.00

###

measured.target: Muscarinic acetylcholine receptor M1 (Homo sapiens, UniProt P11229)
Sequence (P11229 whole entry): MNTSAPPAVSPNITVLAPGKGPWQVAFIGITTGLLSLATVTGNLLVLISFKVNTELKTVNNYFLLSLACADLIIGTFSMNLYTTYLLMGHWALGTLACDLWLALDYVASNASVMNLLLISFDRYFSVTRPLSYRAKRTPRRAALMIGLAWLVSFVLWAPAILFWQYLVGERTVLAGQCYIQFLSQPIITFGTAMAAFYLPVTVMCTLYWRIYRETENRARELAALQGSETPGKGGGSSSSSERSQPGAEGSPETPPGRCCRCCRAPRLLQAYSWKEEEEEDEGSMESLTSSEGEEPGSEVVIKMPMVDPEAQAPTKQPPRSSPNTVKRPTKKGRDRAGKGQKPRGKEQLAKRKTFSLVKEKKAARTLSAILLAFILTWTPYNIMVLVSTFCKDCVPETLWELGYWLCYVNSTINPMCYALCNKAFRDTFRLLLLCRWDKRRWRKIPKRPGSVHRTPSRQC
pIC50: −log10 of the molar value.
quantity.kind: pIC50

Notebook: CN(C)CC(c1ccc(O)cc1)C1(O)CCCCC1 (stereo unspecified) [CAS_386750-22-7] , pIC50 read as < 5.00
